tested on: IRAK4; conditions: concentration: 1 μM,replicates: in singlicate; n = 1;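 further: KINOMEscan kinase panel screen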
%Inh values, listed per item
ASSAY METRIC: %Inh

In [3]: df
Out[3]:
                                   compound  recorded_value
0  NC(=O)Nc1sc(-c2ccc(F)cc2)cc1C(N)=O [GW789449]             12%
1  CCOC(=O)N1CCC(n2cnc(-c3ccc(F)cc3)c2-c2ccnc(N)n2)CC1 [SB-219952]             11%
2  Cn1ccc2ncnc(Oc3ccc(NC(=O)Nc4cnn(C(C)(C)C)c4)c(Cl)c3)c21             20%
3  CSc1nccc(-c2c(-c3ccc(F)cc3)ncn2CCCN2CCOCC2)n1.Cl [SB-217146]              0%
4  COc1cccc(OC)c1C(=O)Nc1cccc(-c2nn3ccccc3c2-c2ccnc(Nc3cccc(F)c3)n2)c1 [GSK361065]              0%
5  CN(c1ccc2c(c1)nc(NCc1ccc(F)cc1)n2C)c1ccnc(Nc2ccc(CS(C)(=O)=O)cc2)n1.Cl [GW813244]              0%
6     CCCC(=O)Nc1n[nH]c2ncccc12 [SB-601436]              0%
7  COc1cc2c(Nc3ccc(NC(=O)c4ccccc4)cc3)ncnc2cc1OCCCN1CCOCC1 [GSK301329]             11%
8  Cc1ccc(CC(=O)N2CCc3cc(-c4cn(C)c5ncnc(N)c45)ccc32)cc1 [GSK2634758]              0%

---

system: MKK7; settings: concentration: 1 μM,replicates: in singlicate; n = 1
%Inh values, listed per item
ASSAY METRIC: %Inh

                                    molecule  assay_metric  recorded_value
 0  Cc1cccc(-c2nc(Nc3ccncc3)c3sccc3n2)n1 [GW869641]          %Inh             16%
 1  CS(=O)(=O)c1cccc(CNc2nc(Nc3ccc4c(c3)[C@@H]3C[C@@H]4CNC3=O)ncc2C(F)(F)F)c1          %Inh              9%
 2  Cn1ccc2ncnc(Oc3ccc(NC(=O)Nc4ccnc(C(F)(F)F)c4)c(Cl)c3)c21          %Inh              0%
 3  CCNCC(Cc1ccccc1)NC(=O)c1cc(Br)c(-c2ccnc3[nH]ccc23)s1.Cl.Cl (stereo not shown) [GSK1383280]          %Inh             35%
 4  CC(=O)Nc1ccc(-c2cc3ncnc(SCC(=O)O)c3s2)cc1          %Inh              0%
 5  CN1CCN(CCNc2nc3cc(Oc4ccc(NC(=O)Nc5cc(C(F)(F)F)ccc5F)cc4)ccc3[nH]2)CC1.Cl.Cl [GW768504]          %Inh              0%
 6  C[C@@H](Oc1cc(-n2cnc3ccc(-c4ccncc4)cc32)sc1C(N)=O)c1ccccc1Cl [GSK483724]          %Inh             56%
 7  COC(=O)c1cccc(NC(=O)NC2CCN(c3ccnc(NCc4ccc(F)cc4)n3)CC2)c1 [GSK1379860]          %Inh             45%
 8  Cn1ccc2ncnc(Oc3ccc(NC(=O)Nc4cccc(C(F)(F)F)c4)c(F)c3)c21          %Inh              0%
 9  Cl.Nc1n[nH]c2cc(-c3ccccn3)ccc12 [GSK2189892]          %Inh              0%
10  Cn1ccc2ncnc(Oc3ccc(NC(=O)Nc4cccc(C(F)(F)F)c4)c(Cl)c3)c21          %Inh             32%
11  O=C(Nc1cccc(Oc2ccc3nccn3n2)c1)Nc1cccc(C(F)(F)F)c1          %Inh              0%
12     CCCC(=O)Nc1n[nH]c2ncccc12 [SB-601436]          %Inh              0%
13  Cc1nnc(-c2ccc3occ(-c4ccc(S(C)=O)cc4)c3n2)o1 (stereo not shown)          %Inh              0%
14  Cl.c1ccc(Oc2ccc(Nc3ccnc4cc(-c5ccc(CN6CCNCC6)o5)ccc34)cc2)nc1 [GW567142]          %Inh             11%
15  CS(=O)(=O)Nc1ccc(-c2ccnc3[nH]ccc23)cc1 [GSK993273]          %Inh              0%
16  CCOC(=O)N1CCC(n2cnc(-c3ccc(F)cc3)c2-c2ccnc(N)n2)CC1 [SB-219952]          %Inh             11%
17  CNC(=O)c1ccccc1Nc1nc(Nc2cccc(CS(C)(=O)=O)c2)ncc1C.O=CO [GSK1520489]          %Inh              0%
18  c1ccc(Oc2ccc(Nc3ccnc4ccc(-c5ccccn5)cc34)cc2)cc1 [GW407034]          %Inh              0%
19  O=C(NOCC1CC1)c1cc(Br)c(F)c(F)c1Nc1ccc(I)cc1Cl          %Inh              0%
20  COC(=O)Nc1nc2cc(Oc3ccc(NC(=O)Nc4cc(C(F)(F)F)ccc4Cl)cc3)ccc2[nH]1.Cl [GW697465]          %Inh              0%
21  Cl.Cl.NC[C@H](CC1CCCCC1)NC(=O)c1ccc(-c2ccnc3[nH]ccc23)s1 [GSK1581428]          %Inh              0%
22    O=C(Nc1ccccc1)c1cccc(Oc2ccc3nccn3n2)c1          %Inh              0%
23  NC(=O)c1ccc(-c2cc3ncnc(SCC(=O)O)c3s2)cc1          %Inh              0%
24  CC(C(=O)NC1CCN(c2ccnc(Nc3ccc(F)cc3)n2)C1)c1ccc(Cl)cc1 (stereo not shown) [GSK1379713]          %Inh              0%
25  FC(F)(F)c1cc(Br)cc(Nc2nccc(-c3cnn4ncccc34)n2)c1 [GW810578]          %Inh              0%
26  COc1cc2nccc(Nc3ccc(Oc4ccccc4)cc3)c2cc1OC.Cl [GI261656]          %Inh              0%
27  Cc1ccc(Nc2ccnc(Nc3ccc4c(c3)CS(=O)(=O)C4)n2)cc1O.Cl [GW579362]          %Inh              0%
28  CN(c1cccc(CNc2nc(Nc3ccc4c(c3)CC(=O)N4)ncc2C(F)(F)F)c1)S(C)(=O)=O          %Inh              0%
29  CN(c1ccccc1CNc1nc(Nc2ccc3c(c2)CC(=O)N3)ncc1C(F)(F)F)S(C)(=O)=O          %Inh              0%
30  C[C@@H]1CNc2c(sc3ccc4nc(-c5ccncc5)ccc4c23)C(=O)N1          %Inh              0%

---

test system: ERK8; construct: gene MAPK15; settings: concentration: 1 μM,replicates: in singlicate; n = 1
ASSAY METRIC: %Inh (%)

>>> print(df.to_string())
                                    compound  measurement_target  recorded_value
 0  O=C(Nc1ccc(Oc2ccc3nc(NC(=O)C4CC4)cn3n2)c(F)c1)c1cccn(-c2ccccc2)c1=O                ERK8               9
 1  FC(F)(F)c1cc(Br)cc(Nc2nccc(-c3cnn4ncccc34)n2)c1                ERK8            99.5
 2            CCn1c(-c2nonc2N)nc2cncc(Br)c21                ERK8               0
 3  Cc1n[nH]c2cc(Nc3ccnc(Nc4cccc(CN5CCOCC5)c4)n3)ccc12                ERK8               0
 4  O=C(Nc1cccc(C(F)(F)F)c1)c1cccc(Oc2ccc3nccn3n2)c1                ERK8               4
 5  Cc1ccc(Nc2ccnc(Nc3ccc4c(c3)CS(=O)(=O)C4)n2)cc1O.Cl                ERK8              18
 6  CC(=O)Nc1nc2cnc(Nc3cc(NC(=O)c4cccc(CC(C)(C)C#N)c4)ccc3C)nc2s1                ERK8              53
 7  C[C@@H]1CCN(C(=O)N2CCCC2)C[C@@H]1N(C)c1ncnc2[nH]ccc12                ERK8              34
 8  CSc1nccc(-c2c(-c3ccc(F)cc3)ncn2CCCN2CCOCC2)n1.Cl                ERK8               0
 9  N#Cc1cccc(C(=O)NC2CCN(c3ccnc(Nc4ccc(F)cc4)n3)C2)c1 (centres unmarked)                ERK8               0
10        NC(=O)Nc1sc(-c2ccc(F)cc2)cc1C(N)=O                ERK8              10
11  CC(C(=O)NC1CCN(c2ccnc(Nc3ccc(F)cc3)n2)C1)c1ccc(Cl)cc1 (centres unmarked)                ERK8               0
12  COc1cc2ncn(-c3cc(OCC4CCCCC4)c(C(N)=O)s3)c2cc1OC                ERK8               2
13  O=C(NOCC1CC1)c1cc(Br)c(F)c(F)c1Nc1ccc(I)cc1Cl                ERK8               8
14  Cc1ccc2c(-c3ccnc(Nc4ccc(C(F)(F)F)cc4)n3)cnn2n1                ERK8            99.4
15  O=C(NCC1CC1)c1ccc(-c2cc(C(=O)NC3CC3)ccc2F)cc1                ERK8               0
16  OCCn1cc(-c2cnc3nnn(Cc4ccc5ncccc5c4)c3n2)cn1                ERK8               9
17  COc1cc(Nc2nccc(N3CCC(NC(=O)c4cccc(C#N)c4)C3)n2)cc(OC)c1OC (centres unmarked)                ERK8               0
18  CC(C)S(=O)(=O)N1CCN(Cc2ccc3c(c2)nc(NC(=O)c2ccsc2)n3C[C@H](O)c2ccccc2)CC1                ERK8               0
19  NC(=O)c1ccc(-c2cc3ncnc(SCC(=O)O)c3s2)cc1                ERK8              63
20  COc1cccc(C2=C(Nc3cccc(Cl)c3)C(=O)NC2=O)c1                ERK8              71
21  CCn1c(-c2nonc2N)nc2cncc(CNC3CCNCC3)c21.Cl                ERK8              16
22           Nc1nccc(-c2ccc3c(N)n[nH]c3c2)n1                ERK8              49
23  COC(=O)Nc1nc2cc(Oc3ccc(NC(=O)Nc4cc(C(F)(F)F)ccc4Cl)cc3)ccc2[nH]1.Cl                ERK8            90.9
24  CS(=O)c1ccc(-c2coc3ccc(-c4n[nH]c(=O)o4)cc23)cc1 (centres unmarked)                ERK8              44
25  Cl.c1ccc(Oc2ccc(Nc3ccnc4cc(-c5ccc(CN6CCNCC6)o5)ccc34)cc2)nc1                ERK8               0
26  CN(c1cccc(CNc2nc(Nc3ccc4c(c3)CC(=O)N4)ncc2C(F)(F)F)c1)S(C)(=O)=O                ERK8              79
27  O=C(Nc1cccc(Oc2ccc3nccn3n2)c1)Nc1cccc(C(F)(F)F)c1                ERK8              18
28  COc1cc2nccc(Nc3ccc(Oc4ccccc4)cc3)c2cc1OC.Cl                ERK8               0
29      Cn1cc(-c2cccc3c(N)c(C(N)=O)nnc23)cn1                ERK8               0
30  COC(=O)c1cccc(NC(=O)NC2CCN(c3ccnc(NCc4ccc(F)cc4)n3)CC2)c1                ERK8              35
31  CC(=O)Nc1ccc(-c2cc3ncnc(SCC(=O)O)c3s2)cc1                ERK8              27
32  CCN1CCN(CCCC(=O)Nc2n[nH]c3nc(-c4ccc(O)cc4)c(Br)cc23)CC1                ERK8              56
33  c1ccc(Oc2ccc(Nc3ccnc4ccc(-c5ccccn5)cc34)cc2)cc1                ERK8              31
34  CCNCC(Cc1ccccc1)NC(=O)c1cc(Br)c(-c2ccnc3[nH]ccc23)s1.Cl.Cl (centres unmarked)                ERK8               3
